# assay_protocol: gradient 5% acetonitrile 3 min, to 50% in 2 min, to 85% in 15 min, held 3 min, 100 µL/min
# condition_details: column: Zorbax Extend-C18 2.1 x 50 mm; eluents: water / acetonitrile, 0.1% formic acid
endpoint: RP-LC retention time (s)

I: O=C(O)C1CN(C(=O)COc2ccccc2F)C1
II: O=C(CSc1nnc(-c2ccc3c(c2)OCO3)o1)N1CCc2ccccc2C1
For I and II , which recorded RP-LC retention time is lower? Use the label to indicate which entry you chose.
I

P: COc1ccc(-n2ccn3cc(-c4ccc(OC)c(OC)c4)nc3c2=O)cc1Cl
Q: Cc1cccc(-c2nc(C3CCN(S(=O)(=O)c4ccc5c(c4)CCCC5)CC3)no2)c1
Pick the one with the larger RP-LC retention time: P vs Q Output the label that corresponds to your choice.
Q

P: O=S(=O)(c1ccc2c(c1)OCCO2)N(CCc1cccs1)Cc1cccnc1
Q: COc1cccc(CN2CC(=O)N(Cc3cccc(F)c3)c3ccccc3S2(=O)=O)c1
# return whichever of P and Q has the smaller RP-LC retention time // caller expects the label of the chosen entry
P

P: CCOC(=O)c1cnc2nc(C)ccc2c1Nc1ccc(S(N)(=O)=O)cc1
Q: Cc1ccc(NC(=O)C2CCN(S(=O)(=O)c3cc(C(=O)N(C)C)cs3)CC2)cc1F
Hi, I'm comparing P with Q and wondering which one has the bigger number for RP-LC retention time. Any idea? Returns: label corresponding to the selected item.
Q
(Q: 847 s, P: 589 s)

Origin of values: the METLIN SMRT retention time set (Domingo-Almenara et al. 2019)
